Measured values drawn from ChEMBL document CHEMBL1142862 for this set.

# tested.target: Glutamate receptor ionotropic, NMDA 2B (Rattus norvegicus)
# Sequence (Q00960 whole entry): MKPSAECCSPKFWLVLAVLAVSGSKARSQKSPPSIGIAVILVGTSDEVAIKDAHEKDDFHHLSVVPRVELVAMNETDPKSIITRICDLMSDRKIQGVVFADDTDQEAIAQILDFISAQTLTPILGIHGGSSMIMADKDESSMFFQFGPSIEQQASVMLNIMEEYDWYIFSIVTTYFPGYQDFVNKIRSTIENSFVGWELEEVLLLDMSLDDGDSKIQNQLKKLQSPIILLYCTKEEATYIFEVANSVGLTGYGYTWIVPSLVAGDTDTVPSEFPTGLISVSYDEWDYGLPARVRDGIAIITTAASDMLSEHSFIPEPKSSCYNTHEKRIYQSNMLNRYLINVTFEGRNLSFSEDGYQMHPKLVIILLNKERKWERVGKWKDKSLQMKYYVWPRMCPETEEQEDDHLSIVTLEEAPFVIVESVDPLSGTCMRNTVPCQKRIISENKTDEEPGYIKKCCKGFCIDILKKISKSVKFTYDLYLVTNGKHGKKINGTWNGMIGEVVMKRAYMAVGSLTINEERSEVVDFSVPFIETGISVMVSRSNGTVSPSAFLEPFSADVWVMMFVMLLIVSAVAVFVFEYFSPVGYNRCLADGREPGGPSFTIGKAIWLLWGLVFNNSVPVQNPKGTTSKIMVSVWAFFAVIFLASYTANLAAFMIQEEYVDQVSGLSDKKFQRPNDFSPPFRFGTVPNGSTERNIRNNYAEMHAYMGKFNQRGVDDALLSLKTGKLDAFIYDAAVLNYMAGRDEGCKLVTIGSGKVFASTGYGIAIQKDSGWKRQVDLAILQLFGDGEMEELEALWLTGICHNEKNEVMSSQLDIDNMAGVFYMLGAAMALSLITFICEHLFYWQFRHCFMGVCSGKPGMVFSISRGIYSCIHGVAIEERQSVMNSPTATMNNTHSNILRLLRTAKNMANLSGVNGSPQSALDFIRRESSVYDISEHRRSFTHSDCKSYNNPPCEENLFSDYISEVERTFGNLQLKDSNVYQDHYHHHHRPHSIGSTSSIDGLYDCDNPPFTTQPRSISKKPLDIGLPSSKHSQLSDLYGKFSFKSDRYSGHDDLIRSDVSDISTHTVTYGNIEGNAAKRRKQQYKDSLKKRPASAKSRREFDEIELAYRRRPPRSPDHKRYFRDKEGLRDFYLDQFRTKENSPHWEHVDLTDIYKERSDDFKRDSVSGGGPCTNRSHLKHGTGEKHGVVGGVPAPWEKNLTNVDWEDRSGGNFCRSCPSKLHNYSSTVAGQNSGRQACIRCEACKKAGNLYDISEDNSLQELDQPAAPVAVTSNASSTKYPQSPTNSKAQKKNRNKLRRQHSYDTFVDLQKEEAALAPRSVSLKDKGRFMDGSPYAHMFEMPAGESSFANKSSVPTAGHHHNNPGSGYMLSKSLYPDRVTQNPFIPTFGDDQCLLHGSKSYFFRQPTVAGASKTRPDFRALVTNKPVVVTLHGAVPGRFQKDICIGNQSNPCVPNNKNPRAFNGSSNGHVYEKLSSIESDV
# assay.name: Antagonist activity at NR2B NMDA receptor in Wistar rat neocortical cells assessed as inhibition of NMDA-evoked elevation of intracellular calcium concentration
# Format: functional, cell-based
pIC50: −log10 of the molar value.

molecular.string	tested.target	pIC50
Cc1cccc(CC2CCN(C(=O)c3nc4cc(O)ccc4[nH]3)CC2)c1	Glutamate receptor ionotropic, NMDA 2B (Rattus norvegicus)	8.62
CS(=O)(=O)Nc1ccc2nc(CN3CCC(Cc4ccccc4)CC3)[nH]c2c1	Glutamate receptor ionotropic, NMDA 2B (Rattus norvegicus)	8.07
O=C(c1cc2ccc(O)cc2[nH]1)N1CCC(Cc2cccc(F)c2)CC1	Glutamate receptor ionotropic, NMDA 2B (Rattus norvegicus)	7.42
O=C(c1cc2ccc(O)cc2[nH]1)N1CCC(OCc2ccccc2)CC1	Glutamate receptor ionotropic, NMDA 2B (Rattus norvegicus)	7.80
CS(=O)(=O)Nc1ccc2[nH]c(C(=O)N3CCC(Cc4ccccc4)CC3)cc2c1	Glutamate receptor ionotropic, NMDA 2B (Rattus norvegicus)	6.20
Cc1ccc(CC2CCN(C(=O)c3cc4ccc(O)cc4[nH]3)CC2)cc1	Glutamate receptor ionotropic, NMDA 2B (Rattus norvegicus)	6.68
O=C(c1nc2ccc(O)cc2s1)N1CCC(Cc2ccccc2)CC1	Glutamate receptor ionotropic, NMDA 2B (Rattus norvegicus)	5.59
COc1cccc(CC2CCN(C(=O)c3nc4cc(O)ccc4[nH]3)CC2)c1	Glutamate receptor ionotropic, NMDA 2B (Rattus norvegicus)	8.60
CS(=O)(=O)Nc1ccc2cc(C(=O)N3CCC(Cc4ccccc4)CC3)[nH]c2c1	Glutamate receptor ionotropic, NMDA 2B (Rattus norvegicus)	7.52
O=C(c1cc2ccc(O)cc2[nH]1)N1CCC(CCc2ccccc2)CC1	Glutamate receptor ionotropic, NMDA 2B (Rattus norvegicus)	6.06

----------
# tested.target: Glutamate receptor ionotropic, NMDA 2B (Rattus norvegicus)
# assay.name: Antagonist activity at NR2B NMDA receptor in Wistar rat neocortical cells assessed as inhibition of NMDA-evoked elevation of intracellular calcium concentration
# Assay type: functional, cell-based
quantity.name: log10 of IC50 (log10 of the value in nM)

molecular.string	log10 of IC50
O=C(c1cc2ccc(O)cc2[nH]1)N1CCC(Oc2ccccc2)CC1	2.03
O=C(c1nc2c(O)ccc(O)c2[nH]1)N1CCC(Cc2ccccc2)CC1	0.48
O=C(c1cc2c(O)cc(O)cc2[nH]1)N1CCC(Cc2ccccc2)CC1	0.81
O=C(c1cc2cccc(O)c2[nH]1)N1CCC(Cc2ccccc2)CC1	2.22
O=C(c1cc2c(ccc3[nH]cnc32)[nH]1)N1CCC(Cc2ccccc2)CC1	1.70
O=C(c1cc2c(ccc3[nH]ncc32)[nH]1)N1CCC(Cc2ccccc2)CC1	1.30
COc1ccc(CC2CCN(C(=O)c3cc4ccc(O)cc4[nH]3)CC2)cc1	1.90
Nc1cccc2[nH]c(C(=O)N3CCC(Cc4ccccc4)CC3)cc12	0.63
O=C(c1cc2cc(O)ccc2[nH]1)N1CCC(Cc2ccccc2)CC1	1.40

----------
# tested.target: UniProt:Q00960
# assay.name: Displacement of [3H]Ro 25,6981 from NR2B NMDA receptor in rat forebrain
// returns NOT MET unless IC50 is strictly below 10 nM, in which case MET

molecule	tested.target	label.class
O=C(c1cc2cc3[nH]c(=O)oc3cc2[nH]1)N1CCC(Cc2ccccc2)CC1	UniProt:Q00960	NOT MET
CS(=O)(=O)Nc1ccc2[nH]c(C(=O)N3CCC(Cc4ccccc4)CC3)nc2c1	UniProt:Q00960	MET
O=C(c1cc2ccc(O)cc2[nH]1)N1CCC(Cc2ccc(F)cc2)CC1	UniProt:Q00960	NOT MET
Cc1cccc(CC2CCN(C(=O)c3nc4cc(O)ccc4[nH]3)CC2)c1	UniProt:Q00960	MET
O=C(c1cc2cc(O)ccc2o1)N1CCC(Cc2ccccc2)CC1	UniProt:Q00960	NOT MET
O=C(c1cc2ccc(O)cc2[nH]1)N1CCC(Cc2cccc(F)c2)CC1	UniProt:Q00960	NOT MET
Nc1ccc2[nH]c(C(=O)N3CCC(Cc4ccccc4)CC3)nc2c1	UniProt:Q00960	NOT MET
Cc1ccc(OC2CCN(C(=O)c3nc4cc(O)ccc4[nH]3)CC2)cc1	UniProt:Q00960	MET
Nc1cccc2[nH]c(C(=O)N3CCC(Cc4ccccc4)CC3)cc12	UniProt:Q00960	NOT MET
O=C(c1cc2c(NCc3ccccc3)cccc2[nH]1)N1CCC(Cc2ccccc2)CC1	UniProt:Q00960	NOT MET
O=C(c1cc2c(O)cccc2[nH]1)N1CCC(Cc2ccccc2)CC1	UniProt:Q00960	NOT MET
O=C(c1nc2cc(O)ccc2[nH]1)N1CCC(Oc2ccc(Cl)cc2)CC1	UniProt:Q00960	NOT MET
O=C(c1cc2ccc(O)cc2[nH]1)N1CCC(CCc2ccccc2)CC1	UniProt:Q00960	NOT MET
O=C(c1cc2ccc(O)cc2o1)N1CCC(Cc2ccccc2)CC1	UniProt:Q00960	NOT MET
O=C(c1nc2cc(O)ccc2[nH]1)N1CCC(Oc2ccc(F)cc2)CC1	UniProt:Q00960	MET
O=C(c1cc2cc(O)ccc2s1)N1CCC(Cc2ccccc2)CC1	UniProt:Q00960	NOT MET
O=C(c1cc2c(ccc3[nH]cnc32)[nH]1)N1CCC(Cc2ccccc2)CC1	UniProt:Q00960	MET
O=C(c1cc2ccc(O)cc2[nH]1)N1CCC(C(O)c2ccccc2)CC1 (configuration not stated)	UniProt:Q00960	NOT MET
O=C(c1cc2cccc(O)c2[nH]1)N1CCC(Cc2ccccc2)CC1	UniProt:Q00960	NOT MET
O=C(c1cc2c(O)cc(O)cc2[nH]1)N1CCC(Cc2ccccc2)CC1	UniProt:Q00960	MET
